- Target Of Assay: Vascular endothelial growth factor receptor 2 (Homo sapiens)
- Sequence (P35968 whole entry): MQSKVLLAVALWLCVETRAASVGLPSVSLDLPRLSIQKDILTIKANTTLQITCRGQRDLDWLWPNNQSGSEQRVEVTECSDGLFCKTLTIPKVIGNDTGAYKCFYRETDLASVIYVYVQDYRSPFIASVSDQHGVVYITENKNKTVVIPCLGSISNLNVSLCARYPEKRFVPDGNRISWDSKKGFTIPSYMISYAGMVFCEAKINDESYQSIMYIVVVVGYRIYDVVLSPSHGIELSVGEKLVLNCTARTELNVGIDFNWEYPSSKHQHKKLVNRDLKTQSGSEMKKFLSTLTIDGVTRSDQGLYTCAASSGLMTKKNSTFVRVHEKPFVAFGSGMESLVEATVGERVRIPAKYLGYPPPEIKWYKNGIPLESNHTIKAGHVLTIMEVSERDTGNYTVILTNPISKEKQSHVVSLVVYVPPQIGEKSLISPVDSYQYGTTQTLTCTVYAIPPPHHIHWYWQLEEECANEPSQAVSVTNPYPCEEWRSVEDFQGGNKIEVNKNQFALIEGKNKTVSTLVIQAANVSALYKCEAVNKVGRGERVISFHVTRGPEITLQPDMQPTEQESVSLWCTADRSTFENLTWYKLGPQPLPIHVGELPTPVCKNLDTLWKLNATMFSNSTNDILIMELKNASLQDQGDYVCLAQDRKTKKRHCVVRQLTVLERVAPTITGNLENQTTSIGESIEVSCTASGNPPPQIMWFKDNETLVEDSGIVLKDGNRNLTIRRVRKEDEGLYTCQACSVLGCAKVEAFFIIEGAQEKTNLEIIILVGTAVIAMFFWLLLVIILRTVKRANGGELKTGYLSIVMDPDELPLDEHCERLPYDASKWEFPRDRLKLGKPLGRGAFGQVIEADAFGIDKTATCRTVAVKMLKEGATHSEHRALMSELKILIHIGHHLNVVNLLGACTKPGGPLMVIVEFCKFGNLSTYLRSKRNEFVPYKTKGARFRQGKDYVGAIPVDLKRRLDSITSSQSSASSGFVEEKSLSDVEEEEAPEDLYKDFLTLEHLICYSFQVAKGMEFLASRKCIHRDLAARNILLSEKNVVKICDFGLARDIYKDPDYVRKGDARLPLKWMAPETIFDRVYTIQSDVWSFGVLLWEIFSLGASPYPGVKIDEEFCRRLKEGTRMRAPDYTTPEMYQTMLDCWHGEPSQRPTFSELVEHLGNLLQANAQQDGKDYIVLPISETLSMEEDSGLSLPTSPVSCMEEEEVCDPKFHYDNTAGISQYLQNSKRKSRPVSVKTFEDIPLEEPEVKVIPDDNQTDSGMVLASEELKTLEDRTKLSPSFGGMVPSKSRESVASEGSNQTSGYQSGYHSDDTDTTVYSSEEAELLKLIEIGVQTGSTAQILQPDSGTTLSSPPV
Quantity: pIC50
Numbers only, as −log10 of the molar value.

// query pIC50 value for entry Nc1nc(Nc2cccc(Cl)c2)nc(-c2ccnc(NCCCO)c2)n1
5.97

---

- Assay Protocol: Inhibition of Protein kinase C gamma
pIC50: −log10 of the molar value.
Quantity: pIC50

// query pIC50 value for entry OCCCNc1cc(-c2ncnc(Nc3cccc(Cl)c3)n2)ccn1
< 5.00

---

- Target Of Assay: RAC-beta serine/threonine-protein kinase (Homo sapiens, UniProt P31751)
- Sequence (P31751 whole entry): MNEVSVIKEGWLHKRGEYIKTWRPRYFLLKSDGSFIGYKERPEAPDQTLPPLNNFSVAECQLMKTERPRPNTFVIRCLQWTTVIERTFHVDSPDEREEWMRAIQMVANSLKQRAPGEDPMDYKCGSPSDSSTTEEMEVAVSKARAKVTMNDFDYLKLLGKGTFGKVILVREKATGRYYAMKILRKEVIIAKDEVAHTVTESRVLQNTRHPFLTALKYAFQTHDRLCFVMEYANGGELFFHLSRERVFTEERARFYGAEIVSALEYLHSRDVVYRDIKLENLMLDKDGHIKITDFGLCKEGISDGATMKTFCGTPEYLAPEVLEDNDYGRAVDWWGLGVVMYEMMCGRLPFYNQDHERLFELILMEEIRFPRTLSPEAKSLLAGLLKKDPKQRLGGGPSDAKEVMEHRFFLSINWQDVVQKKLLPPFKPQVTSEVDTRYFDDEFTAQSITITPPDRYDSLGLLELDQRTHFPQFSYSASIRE
Quantity: IC50

// query IC50 value for entry OCCCNc1cc(-c2ncnc(Nc3cccc(Cl)c3)n2)ccn1
> 10 µM

---

- Assay Protocol: Inhibition of [Ca(2+)]/Calmodulin dependent kinase
pIC50: −log10 of the molar value.
Quantity: pIC50

// query pIC50 value for entry OCCCNc1cc(-c2ncnc(Nc3cccc(Cl)c3)n2)ccn1
< 5.00

---

- Target Of Assay: Cyclin-dependent kinase 5/CDK5 activator 1 (Homo sapiens)
- Sequence (Q00535 whole entry): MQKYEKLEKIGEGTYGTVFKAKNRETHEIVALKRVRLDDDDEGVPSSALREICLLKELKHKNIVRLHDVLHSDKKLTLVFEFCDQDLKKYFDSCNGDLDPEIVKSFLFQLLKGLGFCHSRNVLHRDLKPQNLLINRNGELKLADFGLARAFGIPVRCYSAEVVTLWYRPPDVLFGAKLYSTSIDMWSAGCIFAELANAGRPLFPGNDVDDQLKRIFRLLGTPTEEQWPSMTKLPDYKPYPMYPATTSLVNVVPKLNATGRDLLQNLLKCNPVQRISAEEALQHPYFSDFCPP
- Sequence (Q15078 whole entry, further chain): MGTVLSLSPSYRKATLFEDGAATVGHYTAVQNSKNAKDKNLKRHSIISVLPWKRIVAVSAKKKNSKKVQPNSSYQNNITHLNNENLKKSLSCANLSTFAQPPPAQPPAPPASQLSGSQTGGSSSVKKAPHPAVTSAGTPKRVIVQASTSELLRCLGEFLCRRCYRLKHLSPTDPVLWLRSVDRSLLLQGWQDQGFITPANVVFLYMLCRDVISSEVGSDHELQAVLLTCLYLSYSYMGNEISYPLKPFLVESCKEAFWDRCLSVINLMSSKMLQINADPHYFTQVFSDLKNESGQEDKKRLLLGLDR
Quantity: pIC50
Numbers only, as −log10 of the molar value.

// query pIC50 value for entry OCCCNc1cc(-c2ncnc(Nc3cccc(Cl)c3)n2)ccn1
8.52

---

- Assay Protocol: Inhibition of Glycogen synthase kinase-3 beta
Quantity: IC50 (nM)
Give bare numbers, in nM.

// query IC50 value for entry OCCCNc1cc(-c2ncnc(Nc3cccc(Cl)c3)n2)ccn1
20

---

- System: HCT-116
- Assay Protocol: Inhibitory concentration of compound against growth of HCT116 cells
- Experimental Parameters: Homo sapiens
Quantity: IC50 (nM)
Answers are plain numbers, in nM.

// query IC50 value for entry OCCCNc1cc(-c2ncnc(Nc3cccc(Cl)c3)n2)ccn1
23

---

- Target Of Assay: Fibroblast growth factor receptor 2 (Homo sapiens)
- Sequence (P21802 whole entry): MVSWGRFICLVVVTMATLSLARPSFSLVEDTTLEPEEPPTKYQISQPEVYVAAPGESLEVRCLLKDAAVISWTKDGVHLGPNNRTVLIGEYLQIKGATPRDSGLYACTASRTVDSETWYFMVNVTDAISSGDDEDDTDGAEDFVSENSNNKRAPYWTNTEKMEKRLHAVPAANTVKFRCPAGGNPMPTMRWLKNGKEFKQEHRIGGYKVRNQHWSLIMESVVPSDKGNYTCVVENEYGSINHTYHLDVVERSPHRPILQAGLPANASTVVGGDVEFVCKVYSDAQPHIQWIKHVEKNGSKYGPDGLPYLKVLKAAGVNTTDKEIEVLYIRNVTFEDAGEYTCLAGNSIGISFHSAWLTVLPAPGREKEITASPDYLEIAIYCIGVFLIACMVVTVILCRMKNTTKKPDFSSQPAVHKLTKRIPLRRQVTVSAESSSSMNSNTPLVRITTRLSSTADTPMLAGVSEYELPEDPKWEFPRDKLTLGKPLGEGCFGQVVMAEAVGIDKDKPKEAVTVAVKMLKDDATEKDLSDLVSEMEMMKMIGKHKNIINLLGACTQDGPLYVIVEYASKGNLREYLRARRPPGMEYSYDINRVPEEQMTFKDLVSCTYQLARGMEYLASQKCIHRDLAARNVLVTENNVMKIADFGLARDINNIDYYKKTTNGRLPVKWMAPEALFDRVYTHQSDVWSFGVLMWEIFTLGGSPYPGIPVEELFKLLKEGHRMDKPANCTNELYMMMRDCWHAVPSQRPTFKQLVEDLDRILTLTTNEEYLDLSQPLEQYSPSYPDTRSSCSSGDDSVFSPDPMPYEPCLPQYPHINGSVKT
Quantity: IC50

// query IC50 value for entry OCCCNc1cc(-c2ncnc(Nc3cccc(Cl)c3)n2)ccn1
> 10 µM

---

- Target Of Assay: Casein kinase II (Homo sapiens, UniProt P19784+P67870+P68400)
- Sequence (P67870 whole entry): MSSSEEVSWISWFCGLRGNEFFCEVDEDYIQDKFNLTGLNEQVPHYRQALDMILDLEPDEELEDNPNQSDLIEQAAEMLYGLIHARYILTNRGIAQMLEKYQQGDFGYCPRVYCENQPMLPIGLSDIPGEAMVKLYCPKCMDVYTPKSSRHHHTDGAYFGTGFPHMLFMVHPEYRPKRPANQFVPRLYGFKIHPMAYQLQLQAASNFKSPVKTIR
- Sequence (P68400 whole entry): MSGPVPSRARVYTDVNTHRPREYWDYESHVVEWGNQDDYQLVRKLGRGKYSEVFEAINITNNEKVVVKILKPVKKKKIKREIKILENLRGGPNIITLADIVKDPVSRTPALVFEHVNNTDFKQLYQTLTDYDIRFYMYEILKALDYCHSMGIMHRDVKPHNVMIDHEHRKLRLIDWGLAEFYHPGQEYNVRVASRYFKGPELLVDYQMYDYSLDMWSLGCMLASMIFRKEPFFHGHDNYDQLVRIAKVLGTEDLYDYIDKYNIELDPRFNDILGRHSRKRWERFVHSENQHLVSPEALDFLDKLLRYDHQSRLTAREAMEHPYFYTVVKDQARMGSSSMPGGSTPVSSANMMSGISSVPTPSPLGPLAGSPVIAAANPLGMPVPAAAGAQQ
- Sequence (P19784 whole entry): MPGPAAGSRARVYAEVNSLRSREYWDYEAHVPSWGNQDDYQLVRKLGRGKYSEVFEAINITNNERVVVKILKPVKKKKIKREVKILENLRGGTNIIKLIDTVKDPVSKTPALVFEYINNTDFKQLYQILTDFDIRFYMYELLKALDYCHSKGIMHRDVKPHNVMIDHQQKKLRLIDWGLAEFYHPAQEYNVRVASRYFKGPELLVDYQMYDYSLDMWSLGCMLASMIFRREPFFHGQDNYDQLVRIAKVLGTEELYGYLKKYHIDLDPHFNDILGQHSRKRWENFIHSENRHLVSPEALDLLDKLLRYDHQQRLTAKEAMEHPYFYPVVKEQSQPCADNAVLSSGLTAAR
- Assay Protocol: Inhibition of Casein kinase II
pIC50: −log10 of the molar value.
Quantity: pIC50

Query the reported pIC50 for Casein kinase II (Homo sapiens, UniProt P19784+P67870+P68400); item: OCCCNc1cc(-c2ncnc(Nc3cccc(Cl)c3)n2)ccn1
< 5.00

---

- Target Of Assay: UniProt P06493
- Assay Protocol: Inhibition of cyclin dependent kinase CDK1
Quantity: IC50 (µM)
Answers are plain numbers, in µM.

Query the reported IC50 for UniProt P06493; item: OCCCNc1cc(-c2ncnc(Nc3cccc(Cl)c3)n2)ccn1
0.021

---

- Target Of Assay: Cyclin-dependent kinase 1 (Homo sapiens, UniProt P06493)
- Sequence (P06493 whole entry): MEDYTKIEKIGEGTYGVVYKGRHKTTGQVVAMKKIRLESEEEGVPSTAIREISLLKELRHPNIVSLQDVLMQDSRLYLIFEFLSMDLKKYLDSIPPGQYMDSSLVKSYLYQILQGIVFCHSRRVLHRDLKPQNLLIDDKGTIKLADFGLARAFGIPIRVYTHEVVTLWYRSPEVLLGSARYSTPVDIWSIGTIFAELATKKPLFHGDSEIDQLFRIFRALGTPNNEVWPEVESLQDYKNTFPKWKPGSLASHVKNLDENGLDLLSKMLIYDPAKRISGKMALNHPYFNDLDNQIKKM
- Assay Protocol: Inhibition of cyclin dependent kinase (CDK1)
Quantity: pIC50
Numbers only, as −log10 of the molar value.

Smiles Notation | pIC50
OCCCNc1cncc(-c2ncnc(Nc3cccc(Cl)c3)n2)c1 | 7.22
OCCCNc1cncc(-c2ncnc(Nc3ccc4c(c3)OCCO4)n2)c1 | 6.46

Now take the following compound into account.
// query pIC50 value for entry Nc1nc(Nc2cccc(Cl)c2)nc(-c2ccnc(NCCCO)c2)n1
5.96
